Recorded values, source ChEMBL document CHEMBL3039007.

TARGET SYSTEM: UniProtKB Q9Y6L6
Sequence (Q9Y6L6 whole entry): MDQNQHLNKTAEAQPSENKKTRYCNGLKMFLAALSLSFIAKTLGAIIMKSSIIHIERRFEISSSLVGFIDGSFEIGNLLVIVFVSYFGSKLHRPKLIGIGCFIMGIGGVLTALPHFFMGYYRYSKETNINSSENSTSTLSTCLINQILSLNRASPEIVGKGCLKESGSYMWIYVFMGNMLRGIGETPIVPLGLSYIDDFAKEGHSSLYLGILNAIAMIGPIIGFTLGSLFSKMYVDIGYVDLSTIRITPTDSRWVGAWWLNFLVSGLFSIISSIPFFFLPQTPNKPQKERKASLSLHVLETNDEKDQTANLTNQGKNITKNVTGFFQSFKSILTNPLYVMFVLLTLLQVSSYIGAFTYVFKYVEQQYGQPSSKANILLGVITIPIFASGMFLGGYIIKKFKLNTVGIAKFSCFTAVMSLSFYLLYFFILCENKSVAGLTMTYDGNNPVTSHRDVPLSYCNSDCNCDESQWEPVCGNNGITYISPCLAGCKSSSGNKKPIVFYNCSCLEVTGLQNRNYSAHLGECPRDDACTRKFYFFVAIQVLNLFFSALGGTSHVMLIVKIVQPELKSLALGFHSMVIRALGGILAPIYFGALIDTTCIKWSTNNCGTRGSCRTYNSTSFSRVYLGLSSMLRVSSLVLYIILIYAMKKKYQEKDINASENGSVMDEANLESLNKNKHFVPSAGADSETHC
ASSAY SETUP: chinese hamster, cho, 10 µM
Listing of recorded residual activity by entry.
// return numeric value only (unit: %, not printed)

Example compounds with recorded residual activity:
compound=CC(=O)O[C@@H]1C[C@H]2C(C)(C)C=CC(=O)[C@@]2(C)[C@H]2CC[C@]3(C)[C@@H](c4ccoc4)OC(=O)[C@H]4O[C@]43[C@]21C quantitative_result=18.57
compound=CC(=O)O[C@@H]1C[C@H]2C(C)(C)C(=O)C=C[C@]2(C)[C@H]2CC[C@@]3(C)[C@H](c4ccoc4)OC(=O)[C@H]4O[C@]43[C@@]21C quantitative_result=65.45
compound=Cl.FC(F)(F)c1cccc(N2CCNCC2)c1 quantitative_result=106.1
compound="CC(COc1ccccc1)N(CCCl)Cc1ccccc1.Cl (configuration not stated) [PHENOXYBENZAMINE HYDROCHLORIDE]" quantitative_result=101.5
compound=O=C(O)c1cc(O)c(O)c(O)c1 quantitative_result=67.94
compound="C[C@@H]1CCC[C@H](C)N1NC(=O)c1ccc(Cl)c(S(N)(=O)=O)c1 [CLOPAMIDE]" quantitative_result=113.6
compound="Nc1ccc(S(N)(=O)=O)cc1 [SULFANILAMIDE]" quantitative_result=113.8
compound=COc1ccccc1/C=C/C(=O)O quantitative_result=110.4
compound=O=C(O)c1nc2cc(Cl)c(Cl)cc2nc1O quantitative_result=119
compound=CCOC(=O)c1c(C)cc(O)c(C)c1O quantitative_result=76.13

Request: Given O=c1oc2c(O)c(O)cc3c(=O)oc4c(O)c(O)cc1c4c23 , state its recorded residual activity.
Response: 75.25

Request: Reported residual activity for CCOC(=O)CCCCCCCCCCCCC1C=CCC1 (configuration not stated) : what is it?
Response: 108.7

Request: # query: residual activity of entry O=C(CCc1ccc(O)cc1)c1c(O)cc(O)cc1O[C@@H]1O[C@H](CO)[C@@H](O)[C@H](O)[C@H]1O
Response: 50.32

Request: Endpoint output: residual activity of CC[C@H](/C=C/[C@@H](C)[C@H]1CC[C@H]2[C@@H]3CCC4=CC(=O)CC[C@]4(C)[C@H]3CC[C@]12C)C(C)C . Value?
Response: 89.99

Request: Query: residual activity; subject: C=C[C@@](C)(O)CC[C@H]1C(=C)C[C@H](OC(C)=O)[C@H]2C(C)(C)CCC[C@]12C
Response: 81.97

Request: Consider the compound shown here: CN1[C@@H](CC(=O)c2ccccc2)CCC[C@H]1C[C@H](O)c1ccccc1.Cl [LOBELINE HYDROCHLORIDE] What is its recorded residual activity?
Response: 125.6

Request: // returns reported residual activity for input Cl.O=C(O)C1=CCCNC1 [GUVACINE HYDROCHLORIDE]
Response: 115

Request: Using the record for CC(=O)NCCCCCC(=O)O , report its residual activity.
Response: 144.2

Request: Item under review: COC(=O)[C@@H]1OC(=O)[C@H]2O[C@]23[C@@]2(C)[C@H](CC[C@@]13C)[C@@]1(C)CCC(=O)C(C)(C)[C@@H]1C[C@H]2OC(C)=O . Reported residual activity?
Response: 49.67

Request: residual activity lookup needed for C=CCc1ccccc1OCC(O)CNC(C)C (configuration not stated) , thanks.
Response: 89.01

Request: Recorded residual activity for Clc1ccc(CSC(Cn2ccnc2)c2ccc(Cl)cc2Cl)cc1.O=[N+]([O-])O (configuration not stated) [SULCONAZOLE NITRATE] , please?
Response: 116.2

Request: Fill in the blank: the reported residual activity of CC(C)CCCC1(C)C=Cc2c(O)c3c(c(CCC(C)C)c2O1)OC12C(CC4CC1C(C)(C)OC2(CCC(C)C(=O)O)C4O)C3=O (configuration not stated) [DECAHYDROGAMBOGIC ACID] is ____.
Response: 12.82

Request: For the compound CCCCOc1ccc(C(=O)CCN2CCCCC2)cc1.Cl [DYCLONINE HYDROCHLORIDE] , what residual activity is on record?
Response: 170.9

Request: Endpoint output: residual activity of NC(=O)c1ccccc1O [SALICYLAMIDE] . Value?
Response: 85.6

Request: Consider the compound CC(=O)Nc1cc([As](=O)(O)O)ccc1O and give its measured residual activity.
Response: 58.73

Request: residual activity for CCOC(=O)CCC(=O)O[C@H]1[C@H](O[C@@H]2[C@@H](C)[C@H](O[C@H]3C[C@@](C)(OC)[C@@H](O)[C@H](C)O3)[C@@H](C)C(=O)O[C@H](CC)[C@@](C)(O)[C@H](O)[C@@H](C)C(=O)[C@H](C)C[C@@]2(C)O)O[C@H](C)C[C@@H]1N(C)C [ERYTHROMYCIN ETHYLSUCCINATE] ?
Response: 3.592

Request: Can you look up the measured residual activity of C=C(C)[C@@H]1[C@H]2OC(=O)[C@@H]1[C@]1(O)C[C@H]3O[C@]34C(=O)O[C@H]2[C@]14C for me?
Response: 102.7

Request: residual activity for ClC1=C(Cl)C2(Cl)C3C(Cl)C=CC3C1(Cl)C2(Cl)Cl (configuration not stated) ?
Response: 98.77

Request: # lookup: residual activity of CC(N)C(=O)NC(Cc1ccccc1)C(=O)O (racemic)
Response: 90.94

Request: Quick one: residual activity of CC(=O)Nc1ccc(OC(=O)c2ccccc2O)cc1 ?
Response: 103.1

Request: What measured residual activity goes with O=C1C(O)=C([C@H]2CC[C@H](c3ccc(Cl)cc3)CC2)C(=O)c2ccccc21 ?
Response: 89.04

Request: If you can, please state the reported residual activity value of CC(=O)O[C@H]1CC[C@@]2(C)C(=CC[C@@H]3[C@@H]2CC[C@]2(C)C(=O)CC[C@@H]32)C1 [DEHYDROEPIANDROSTERONE ACETATE] .
Response: 97.61
